measurementTarget: human mGlu4 receptor (Homo sapiens)
Construct: expressed in transfected cells; host or cells: monoclonal HEK-293 cell line, stably transfected
experimentalDetails: Ca2+ mobilization in vitro assay on recombinant human mGlu4 expressed in HEK293 cells (PAM, L-AP4 at EC20)
Type: cell-based
conditions: HEK293 cells expressing human mGlu4; L-AP4 added at EC20
Method: FIG. 1: Illustration of the experimental outline for mGlu4 PAM Ca2+ mobilization screening assay and the determination of EC50 and % Emax values. […] About 24 hrs before an experiment, 5×10^4 cells/well were seeded in poly-D-lysine coated, black/clear-bottomed 96-well plates. […] Responses were measured as peak increase in fluorescence minus basal (i.e. fluorescence without addition of L-AP4), normalized to the maximal stimulatory effect obtained with saturating concentrations of L-AP4. […]
reportedProperty: EC50 (nM)
Output spec: scalar in nM, unitless text.

Examples with answers:
{"compound": "CN1C(=O)N(c2c(F)cc(C#Cc3cccc(F)c3F)cc2F)C(=O)C[C@@]1(C)c1cnn(C)c1 [Example 57]", "EC50 (nM)": 97}
{"compound": "Cc1nc(C2(C)CC(=O)N(c3c(F)cc(C#Cc4ccccc4)cc3F)C(=O)N2C)cs1 (racemic) [Example 3]", "EC50 (nM)": 94}
{"compound": "CN1C(=O)N(c2c(F)cc(C#Cc3ccccc3F)cc2F)C(=O)C[C@@]1(C)c1cn[nH]c1 [Example 53]", "EC50 (nM)": 17}

Here's the next entry for you.
Which value of EC50 has been reported for CN1C(=O)N(c2c(F)cc(C#Cc3ccc(F)cc3)cc2F)C(=O)C[C@@]1(C)c1cn[nH]c1 [Example 54] in the records?
27

---

Listed here: items and their measured Emax.
measurementTarget: human mGlu4 receptor (Homo sapiens)
Construct: expressed in transfected cells; host or cells: monoclonal HEK-293 cell line, stably transfected
experimentalDetails: Ca2+ mobilization in vitro assay on recombinant human mGlu4 expressed in HEK293 cells (PAM, L-AP4 at EC20)
Assay type: cell-based
conditions: HEK293; maximal response in % of the maximal stimulatory effect obtained with saturating concentrations of L-AP4; read-out: Eff. (%)
Report as a plain number; the unit % is understood.

Past entries and their recorded results:
{"compound": "CN1C(=O)N(c2c(F)cc(C#Cc3ccccc3)cc2F)C(=O)C[C@@]1(C)c1ccn(CCO)n1", "Emax, %": 156}
{"compound": "CN1C(=O)N(c2c(F)cc(C#Cc3ccccc3)cc2F)C(=O)C[C@@]1(C)c1ccn(C2CCOC2)n1 (mixture of isomers)", "Emax, %": 98}
{"compound": "Cn1cc([C@]2(C)CC(=O)N(c3c(F)cc(C#Cc4ccccc4)cc3F)C(=O)N2)cn1", "Emax, %": 103}
{"compound": "CC[C@@]1(c2cn[nH]c2)CC(=O)N(c2c(F)cc(C#Cc3ccccc3)cc2F)C(=O)N1C", "Emax, %": 126}
{"compound": "CN1C(=O)N(c2c(F)cc(C#Cc3ccc(F)cc3F)cc2F)C(=O)C[C@@]1(C)c1cnn(C)c1", "Emax, %": 139}

Reported Emax for `COCCCn1cc([C@]2(C)CC(=O)N(c3c(F)cc(C#Cc4ccccc4)cc3F)C(=O)N2C)cn1` : what is it?
136

# input compound: `CN1C(=O)N(c2c(F)cc(C#Cc3ccccc3)cc2F)C(=O)C[C@@]1(C)c1cn(C)c2ncccc12` ; wanted: its Emax
155

---

measurementTarget: human mGlu4 receptor (Homo sapiens)
Construct: expressed in transfected cells; host or cells: monoclonal HEK-293 cell line, stably transfected
experimentalDetails: Ca2+ mobilization in vitro assay on recombinant human mGlu4 expressed in HEK293 cells (PAM, L-AP4 at EC20)
Assay type: cell-based
conditions: HEK293 cells expressing human mGlu4; L-AP4 added at EC20
Experimental: FIG. 1: Illustration of the experimental outline for mGlu4 PAM Ca2+ mobilization screening assay and the determination of EC50 and % Emax values. […] About 24 hrs before an experiment, 5×10^4 cells/well were seeded in poly-D-lysine coated, black/clear-bottomed 96-well plates. […] Responses were measured as peak increase in fluorescence minus basal (i.e. fluorescence without addition of L-AP4), normalized to the maximal stimulatory effect obtained with saturating concentrations of L-AP4. […]
reportedProperty: EC50 (nM)
Response body: numeric value in nM, unit text excluded.

{"smilesString": "CN1C(=O)N(c2c(F)cc(C#Cc3ccccc3)cc2F)C(=O)C[C@@]1(C)c1cn(C)nn1", "unitLabel": "nM", "EC50": 71}

Fill blank: measured EC50 of the compound `CN1C(=O)N(c2c(F)cc(C#Cc3ccccc3)cc2F)C(=O)C[C@@]1(C)c1cnco1` is ____.
90

Need EC50, item `CN1C(=O)N(c2c(F)cc(C#Cc3cccnc3)cc2F)C(=O)C[C@@]1(C)c1cnn(C)c1`
39

---

Catalogue of Emax values
measurementTarget: human mGlu4 receptor (Homo sapiens, UniProt Q14833)
Construct: expressed in transfected cells; host or cells: monoclonal HEK-293 cell line, stably transfected
Sequence (Q14833 33-912): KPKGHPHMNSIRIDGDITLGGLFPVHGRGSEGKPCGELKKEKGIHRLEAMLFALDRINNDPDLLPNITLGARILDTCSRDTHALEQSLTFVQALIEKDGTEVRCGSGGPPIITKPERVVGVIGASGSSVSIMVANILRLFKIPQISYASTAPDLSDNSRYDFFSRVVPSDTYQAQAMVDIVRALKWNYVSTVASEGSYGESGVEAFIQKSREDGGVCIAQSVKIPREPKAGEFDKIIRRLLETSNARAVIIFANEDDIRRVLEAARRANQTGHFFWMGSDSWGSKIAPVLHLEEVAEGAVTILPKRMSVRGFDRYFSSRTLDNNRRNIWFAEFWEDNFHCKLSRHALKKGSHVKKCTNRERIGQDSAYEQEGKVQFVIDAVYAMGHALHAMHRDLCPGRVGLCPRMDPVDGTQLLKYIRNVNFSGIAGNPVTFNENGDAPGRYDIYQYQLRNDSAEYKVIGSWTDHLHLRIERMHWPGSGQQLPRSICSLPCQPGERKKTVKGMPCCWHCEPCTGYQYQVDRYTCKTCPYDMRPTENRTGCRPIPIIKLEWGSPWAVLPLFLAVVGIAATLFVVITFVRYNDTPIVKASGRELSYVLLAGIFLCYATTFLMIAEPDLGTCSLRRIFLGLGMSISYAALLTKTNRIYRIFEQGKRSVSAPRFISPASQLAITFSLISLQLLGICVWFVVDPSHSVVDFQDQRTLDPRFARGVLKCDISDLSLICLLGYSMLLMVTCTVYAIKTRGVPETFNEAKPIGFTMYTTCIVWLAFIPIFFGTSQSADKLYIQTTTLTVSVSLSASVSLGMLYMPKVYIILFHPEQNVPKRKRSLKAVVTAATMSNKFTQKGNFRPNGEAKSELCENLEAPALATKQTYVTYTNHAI
experimentalDetails: Ca2+ mobilization in vitro assay on recombinant human mGlu4 expressed in HEK293 cells (PAM, L-AP4 at EC20)
Type: cell-based
conditions: HEK293; maximal response in % of the maximal stimulatory effect obtained with saturating concentrations of L-AP4; read-out: Eff. (%)
Give a bare numeral; the unit % is implied.

Example results:
{"compound": "CN1C(=O)N(c2c(F)cc(C#Cc3ccccc3)cc2F)C(=O)C[C@@]1(C)c1nn(C)c2ccccc12 [Example 8]", "unitLabel": "%", "Emax": 99}
{"compound": "CC[C@@]1(c2cnn(C)c2)CC(=O)N(c2c(F)cc(C#Cc3ccccc3)cc2F)C(=O)N1C [Example 18]", "unitLabel": "%", "Emax": 135}
{"compound": "COCCn1cc([C@]2(C)CC(=O)N(c3c(F)cc(C#Cc4ccccc4)cc3F)C(=O)N2C)cn1 [Example 20]", "unitLabel": "%", "Emax": 137}

What does the record list as Emax for CN1C(=O)N(c2c(F)cc(C#Cc3ccccc3)cc2F)C(=O)C[C@@]1(C)c1ccn(CC(C)(C)O)n1 [Example 63] ?
99

May I ask what Emax has been recorded for CN1C(=O)N(c2c(F)cc(C#Cc3ccccc3)cc2F)C(=O)C[C@@]1(C)c1cnn(C)c1 [Example 6] ?
98

Quick check: Emax of CN1C(=O)N(c2c(F)cc(C#Cc3ccccc3)cc2F)C(=O)C[C@@]1(C)c1nccs1 [Example 1] ?
119

Tell me the measured Emax of CN1C(=O)N(c2c(F)cc(C#Cc3ccccc3)cc2F)C(=O)C[C@@]1(C)c1cnn(CCCO)c1 [Example 22] , please.
143

---

Measured EC50, listed per entry.
measurementTarget: human mGlu4 receptor (Homo sapiens)
Construct: expressed in transfected cells; host or cells: monoclonal HEK-293 cell line, stably transfected
experimentalDetails: Ca2+ mobilization in vitro assay on recombinant human mGlu4 expressed in HEK293 cells (PAM, L-AP4 at EC20)
Type: cell-based
conditions: HEK293 cells expressing human mGlu4; L-AP4 added at EC20
State the answer as a number, implicitly in nM.

Here's what some known entries look like.
{"compound": "CN1C(=O)N(c2c(F)cc(C#Cc3ccccc3)cc2F)C(=O)C[C@@]1(C)c1ccn(CCO)n1 [Example 46]", "EC50, nM": 97}
{"compound": "CC[C@@]1(c2cn[nH]c2)CC(=O)N(c2c(F)cc(C#Cc3cccnc3)cc2F)C(=O)N1C [Example 51]", "EC50, nM": 45}
{"compound": "CN1C(=O)N(c2c(F)cc(C#Cc3ccccc3)cc2F)C(=O)C[C@@]1(C)c1cnn(C2CCOC2)c1 (mixture of isomers) [Example 62]", "EC50, nM": 71}

Any idea what its EC50 is? The compound is CN1C(=O)N(c2c(F)cc(C#Cc3cccc(F)c3)cc2F)C(=O)C[C@@]1(C)c1cn[nH]c1 [Example 59]
44

Given the entry CN1C(=O)N(c2c(F)cc(C#Cc3ccccc3)cc2F)C(=O)C[C@@]1(C)c1ccn(C)n1 [Example 26] , report its measured EC50.
69

Looking for the measured EC50 of COCCn1ccc([C@]2(C)CC(=O)N(c3c(F)cc(C#Cc4ccccc4)cc3F)C(=O)N2C)n1 [Example 30] , can you help?
59

Given the compound CN1C(=O)N(c2c(F)cc(C#Cc3ccccc3)cc2F)C(=O)C[C@@]1(C)c1cnn(CC2COC2)c1 [Example 61] , what is its reported EC50?
63

Can you share its EC50? I mean this compound: Cn1cc([C@]2(C)CC(=O)N(c3c(F)cc(C#Cc4ccccc4)cc3F)C(=O)N2)cn1 [Example 5]
110

Which measured EC50 value corresponds to CN1C(=O)N(c2c(F)cc(C#Cc3cccc(F)c3F)cc2F)C(=O)C[C@@]1(C)c1cn[nH]c1 [Example 55] ?
54
